EXPERIMENT_DESCRIPTION: Purification of LATM2 with 2-iminobiotin-agarose
Format: binding
ASSAY_METRIC: binding to 2-iminobiotin-agarose

MOLECULE: TM2 T78A-D116A: TM2 with 78th threonine and 116th aspartic acid replaced with alanine; SEQ ID NO: 22 (protein, Synthetic TM2 T78A-D116A) MSDVQSSLTGTWYNELNSKMELTANKDGTLTGKYLSKVGDVYVPYPLSGRYNLQPPAGQGVALGWAVSWENSKIHSAATWSGQFFSESSPVILTQWLLSSSTARGDVWESTLVGNASFTKTAPTEQQIAHAQLHCRAPRLK
OBSERVED_MEASUREMENT: did not bind
//
MOLECULE: TM2 L97T-V113R: TM2 with 97th leucine replaced with threonine and 113th valine with arginine (protein) MSDVQSSLTGTWYNELNSKMELTANKDGTLTGKYLSKVGDVYVPYPLSGRYNLQPPAGQGVALGWAVSWENSKIHSATTWSGQFFSESSPVILTQWTLSSSTARGDVWESTLRGNDSFTKTAPTEQQIAHAQLHCRAPRLK
OBSERVED_MEASUREMENT: did not bind
